The measured values listed here are drawn from patent US20040049072A1.

- Tested on: db/db mouse
- Experiment: db/db mouse study (rodent model of Type II diabetes)
- Run Parameters: plasma triglycerides as % of control values, day 3, 30 mg/kg/day
Measured Quantity: db/db mouse Trigs. (D3) (%)

INSERT INTO results (compound, test_target, reading) VALUES
  ('C/C(=C/C=C/C(C)=C/C(=O)O)c1cc(-c2ccccc2F)cc(C(C)C)c1OCC(F)F [Compound L19]', 'db/db mouse', 187),
  ('Cc1cc2c(cc1C1(c3ccc(C(=O)O)cn3)CC1)C(C)(C)CCC2(C)C [LG100268, reference compound]', 'db/db mouse', 195),
  ('CCc1cc(-c2ccsc2/C=C/C(C)=C/C(=O)O)c(OCCCC(F)(F)F)c(C(C)(C)C)c1 [Compound L16]', 'db/db mouse', 79),
  ('CCOc1c(\C(C)=C/C=C/C(C)=C/C(=O)O)cc(C(F)(F)C(F)(F)F)cc1C(C)C [Compound L15]', 'db/db mouse', 156);
